ASSAY CONDITIONS: in 1,4-dioxane, 298.15 K

>  <SUBSTANCE SMILES>
CC(=O)Nc1ccc([N+](=O)[O-])cc1

>  <solubility (mole fraction)>
0.00787

$$$$

====

ASSAY CONDITIONS: in n-propanol, 318.15 K

>  <SUBSTANCE SMILES>
CC(=O)Nc1ccc([N+](=O)[O-])cc1

>  <solubility (mole fraction)>
0.00856

$$$$

====

ASSAY CONDITIONS: in acetonitrile, 303.15 K
ATTRIBUTE MEASURED: solubility (mole fraction)

>  <SUBSTANCE SMILES>
CC(=O)Nc1ccc([N+](=O)[O-])cc1

>  <ATTRIBUTE MEASURED>
solubility (mole fraction)

>  <OBSERVED VALUE>
0.00545

$$$$
